Field: TGI. Provide a value for each of the molecules that follow.
# Test system: M14 melanoma
# Assay method text: NCI tumour cell line growth inhibition, 48 h

[[record]]
molecule = "COC(=O)c1cc2c3c(c1)Oc1cc(C(=O)OC)cc4c1C3c1c(cc(C(=O)OC)cc1O4)O2"
reported_property = "TGI"
recorded_measurement = "> 95.7 µM"


State recorded TGI for all listed molecules.
1. C[C@@H](O)[C@H]1C(=O)N2C(C(=O)O)=C(SCCN=CN)C[C@H]12
2. Cc1cc(-c2no[n+]([O-])c2-c2cc(C)sc2S(C)(=O)=O)c(S(C)(=O)=O)s1

Result:
1: 3.52 µM; 2: > 100 µM

###

# Tested on: SK-MEL-2 melanoma
# Assay method text: NCI tumour cell line growth inhibition, 48 h
Field: TGI. Provide a value for each of the molecules that follow.

Examples with answers:
[[record]]
molecule = "O=C1C=CC(=O)c2ccc(=O)ccc21"
reported_property = "TGI"
recorded_measurement = "34.8 µM"

[[record]]
molecule = "CC1=NN(c2nc(N)nc(/C(C#N)=C\\C3COc4ccccc4C3=O)n2)C(C)(C)C1 (stereo unspecified)"
reported_property = "TGI"
recorded_measurement = "42.3 µM"


State recorded TGI for all listed molecules.
1. NC(=O)c1cccc(N2Cc3ccccc3OC3=C2C(=O)c2c(O)ccc(O)c2C3=O)c1
2. CCCCCCNC(=O)Nc1ccc2cc3ccc(NC(=O)NCCCCCC)cc3nc2c1
3. COc1ccc(-c2cc(-c3cc(F)c(Cl)cc3Cl)[nH]n2)cc1OC
4. CC(C)C(=O)N1C(=O)O[C@@H](c2ccccc2)[C@H]1C
5. CC(C)(C)OC(=O)N1CCCC1=O

Result:
1: 4.79 µM; 2: 4.01 µM; 3: > 100 µM; 4: > 100 µM; 5: > 10 µM

State recorded TGI for all listed molecules.
1. CC(=NC1CCCCC1)c1ccccc1O
2. CCN(CC)CCOc1ccc(/C=C2\CC3C4CC=C5C[C@@H](N6CCCC6)CC[C@]5(C)C4CC[C@]3(C)[C@H]2OC(C)=O)cc1OC (stereo partly specified)
3. Cc1c(C(=O)O)n(-c2ccc(Cl)cc2)c2ncnc(N)c12
4. COc1cccc(C2C(C(=O)O)=C(CO)Oc3cc4c(cc32)OCO4)c1OC (stereo unspecified)

Result:
1: > 100 µM; 2: > 100 µM; 3: > 100 µM; 4: > 100 µM

###

# Test system: SF-539 CNS
# Assay method text: NCI tumour cell line growth inhibition, 48 h
Reported property: log10 of TGI (log10 of the value in µM)
log10 TGI, µM

Examples with answers:
[[record]]
compound = "COc1cc(OC)cc(C(=O)NC2=C(Cl)C(=O)c3ccccc3C2=O)c1"
target_system = "SF-539 CNS"
recorded_measurement = 1.27

[[record]]
compound = "O=[N+]([O-])/C(C(Cl)=C(Cl)Cl)=C(\\Nc1cccc2ccccc12)Sc1ccccc1"
target_system = "SF-539 CNS"
recorded_measurement = 1.57

[[record]]
compound = "CN(C)CCNc1ccc2c(=O)n(CCN(C)C)c(=O)n3c4ccccc4c(=O)c1c23"
target_system = "SF-539 CNS"
recorded_measurement = -0.57

[[record]]
compound = "CCCCCCCCC1=CCC(CN(C)C)C1=O (stereo unspecified)"
target_system = "SF-539 CNS"
recorded_measurement = 1.57

[[record]]
compound = "Clc1ccc(C2c3ccccc3-c3nccn32)c(Cl)c1 (stereo unspecified)"
target_system = "SF-539 CNS"
recorded_measurement = 1.45


Query: Requested field: log10 of TGI. Item: C[N+](C)=C/C=C(\Cl)c1ccc2ccccc2c1
Result: 1.77

These data points were gathered from PubChem BioAssay (NCI).
